Reported IC50 values for the following compounds.
- target: TYK2 (Homo sapiens, UniProt P29597)
- Sequence (P29597 whole entry): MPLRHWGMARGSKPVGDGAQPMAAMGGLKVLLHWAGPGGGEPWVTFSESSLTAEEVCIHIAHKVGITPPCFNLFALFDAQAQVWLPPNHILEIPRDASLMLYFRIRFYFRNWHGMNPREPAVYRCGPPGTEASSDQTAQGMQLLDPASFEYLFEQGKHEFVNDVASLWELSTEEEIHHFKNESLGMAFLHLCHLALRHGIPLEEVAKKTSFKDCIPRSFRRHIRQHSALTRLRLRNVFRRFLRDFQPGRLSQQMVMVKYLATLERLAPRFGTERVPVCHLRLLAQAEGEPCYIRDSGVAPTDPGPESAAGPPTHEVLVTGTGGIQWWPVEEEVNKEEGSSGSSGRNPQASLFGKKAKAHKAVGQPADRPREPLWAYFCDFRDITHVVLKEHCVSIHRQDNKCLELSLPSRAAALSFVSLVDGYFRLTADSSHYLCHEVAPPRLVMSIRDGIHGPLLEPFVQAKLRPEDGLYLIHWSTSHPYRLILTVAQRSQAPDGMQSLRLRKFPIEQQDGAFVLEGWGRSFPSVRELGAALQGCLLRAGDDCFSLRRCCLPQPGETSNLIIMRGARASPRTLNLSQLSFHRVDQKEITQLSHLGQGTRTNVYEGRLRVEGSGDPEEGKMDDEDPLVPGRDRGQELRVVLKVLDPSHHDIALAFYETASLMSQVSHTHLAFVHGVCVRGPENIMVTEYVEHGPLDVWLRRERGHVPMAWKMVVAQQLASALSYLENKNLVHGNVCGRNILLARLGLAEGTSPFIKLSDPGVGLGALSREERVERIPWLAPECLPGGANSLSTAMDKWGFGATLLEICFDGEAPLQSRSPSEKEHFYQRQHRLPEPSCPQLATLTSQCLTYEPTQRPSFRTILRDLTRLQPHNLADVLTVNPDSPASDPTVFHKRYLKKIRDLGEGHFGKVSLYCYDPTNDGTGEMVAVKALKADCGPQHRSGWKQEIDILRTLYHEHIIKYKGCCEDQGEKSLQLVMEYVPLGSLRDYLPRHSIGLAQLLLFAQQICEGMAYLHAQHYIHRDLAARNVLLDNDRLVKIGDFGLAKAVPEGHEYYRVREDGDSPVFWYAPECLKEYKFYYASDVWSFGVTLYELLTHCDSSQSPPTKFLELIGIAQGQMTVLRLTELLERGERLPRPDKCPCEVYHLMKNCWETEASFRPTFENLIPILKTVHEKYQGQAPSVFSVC
- assay-remarks: Lance Ultra Kinase Assay, recombinant TYK2
- test-parameters: 5 mM ATP
recorded-endpoint: IC50

>>> endpoint_value("COC[C@H](C(=O)Nc1cccc2c(-c3nc(Nc4ccc5c(c4)C(=O)NCC5)ncc3F)c[nH]c12)N1CCN(C)CC1")
"2040 nM"
>>> endpoint_value("COC[C@H](C(=O)Nc1cccc2c(-c3nc(Nc4ccc5ocnc5c4)ncc3F)c[nH]c12)N1CCN(C)CC1")
"1400 nM"
>>> endpoint_value("COC[C@H](C(=O)Nc1cccc2c(-c3nc(Nc4ccc(-c5cnco5)nc4)ncc3F)c[nH]c12)N1CCN(C)CC1")
"2510 nM"
>>> endpoint_value("COC[C@H](C(=O)Nc1cccc2c(-c3nc(Nc4ccc5cn[nH]c5c4)ncc3F)c[nH]c12)N1CCN(C)CC1")
"1390 nM"
>>> endpoint_value("CNC(=O)Cc1ccc(Nc2ncc(F)c(-c3c[nH]c4c(NC(=O)[C@@H](COC)N5CCN(C)CC5)cccc34)n2)cn1")
"974 nM"
>>> endpoint_value("COC[C@H](C(=O)Nc1cccc2c(-c3nc(Nc4cnn(C5CCOC5)c4)ncc3F)c[nH]c12)N1CCN(C)CC1 (single isomer, unassigned; isomer 2) [Example 33]")
"2170 nM"
>>> endpoint_value("COC[C@H](C(=O)Nc1cccc2c(-c3nc(Nc4ccc(-c5ncco5)nc4)ncc3F)c[nH]c12)N1CCN(C)CC1")
"5250 nM"
>>> endpoint_value("COC[C@H](C(=O)Nc1cccc2c(-c3nc(Nc4ccc(OCc5ncco5)nc4)ncc3F)c[nH]c12)N1CCN(C)CC1")
"4880 nM"
>>> endpoint_value("COC[C@H](C(=O)Nc1cccc2c(-c3nc(Nc4ccc(OCC(=O)OC)nc4)ncc3F)c[nH]c12)N1CCN(C)CC1")
"4200 nM"
>>> endpoint_value("COC[C@H](C(=O)Nc1cccc2c(-c3nc(Nc4ccnc(CO)c4)ncc3F)c[nH]c12)N1CCN(C)CC1")
"1090 nM"
>>> endpoint_value("COC[C@H](C(=O)Nc1cccc2c(-c3nc(Nc4cnc(C(=O)OC)c(C)c4)ncc3F)c[nH]c12)N1CCN(C)CC1")
"922 nM"
>>> endpoint_value("COC[C@H](C(=O)Nc1cccc2c(-c3nc(Nc4ccc5ncsc5c4)ncc3F)c[nH]c12)N1CCN(C)CC1")
"556 nM"
>>> endpoint_value("COC[C@H](C(=O)Nc1cccc2c(-c3nc(Nc4ccc(C(C)O)nc4)ncc3F)c[nH]c12)N1CCN(C)CC1 (single isomer, unassigned; isomer 2) [Example 9]")
"330 nM"
>>> endpoint_value("COCCOc1ccc(Nc2ncc(F)c(-c3c[nH]c4c(NC(=O)[C@@H](COC)N5CCN(C)CC5)cccc34)n2)cn1")
"1260 nM"
>>> endpoint_value("COC[C@H](C(=O)Nc1cccc2c(-c3nc(Nc4ccnc(C(=O)OC)c4)ncc3F)c[nH]c12)N1CCN(C)CC1")
"1830 nM"
>>> endpoint_value("COC[C@H](C(=O)Nc1cccc2c(-c3nc(Nc4cnc(CCO)c(OC)c4)ncc3F)c[nH]c12)N1CCN(C)CC1")
"545 nM"
>>> endpoint_value("COC[C@H](C(=O)Nc1cccc2c(-c3nc(Nc4ccc5ncoc5c4)ncc3F)c[nH]c12)N1CCN(C)CC1")
"772 nM"
>>> endpoint_value("COC[C@H](C(=O)Nc1cccc2c(-c3nc(Nc4ccc5nc[nH]c5c4)ncc3F)c[nH]c12)N1CCN(C)CC1")
"1290 nM"
>>> endpoint_value("COC[C@H](C(=O)Nc1cccc2c(-c3nc(Nc4cnc(CO)c(OC)c4)ncc3F)c[nH]c12)N1CCN(C)CC1")
"447 nM"
>>> endpoint_value("COC[C@H](C(=O)Nc1cccc2c(-c3nc(Nc4cccc(CCC(=O)OC)n4)ncc3F)c[nH]c12)N1CCN(C)CC1")
"> 10000 nM"
>>> endpoint_value("COC[C@H](C(=O)Nc1cccc2c(-c3nc(Nc4ccc(OCCO)nc4)ncc3F)c[nH]c12)N1CCN(C)CC1")
"2000 nM"
>>> endpoint_value("COC[C@H](C(=O)Nc1cccc2c(-c3nc(Nc4cnn(-c5ccccc5C(=O)OC)c4)ncc3F)c[nH]c12)N1CCN(C)CC1")
"4660 nM"
>>> endpoint_value("COC[C@H](C(=O)Nc1cccc2c(-c3nc(Nc4ccc(C(=O)OC)nc4)ncc3F)c[nH]c12)N1CCN(C)CC1")
"3770 nM"
>>> endpoint_value("CCC(=O)Nc1ccc(Nc2ncc(F)c(-c3c[nH]c4c(NC(=O)[C@@H](COC)N5CCN(C)CC5)cccc34)n2)cn1")
"764 nM"
>>> endpoint_value("COC[C@H](C(=O)Nc1cccc2c(-c3nc(Nc4cnc(C)c(C(=O)OC)c4)ncc3F)c[nH]c12)N1CCN(C)CC1")
"634 nM"
>>> endpoint_value("COC[C@H](C(=O)Nc1cccc2c(-c3nc(Nc4ccc(CO)cn4)ncc3F)c[nH]c12)N1CCN(C)CC1")
"> 10000 nM"
